Inhibition (%) of the luciferase light signal values by entry
# Tested on: luciferase light signal from pIB29EL (yopE-luxAB)
# PROTOCOL_SUMMARY: microbe, parasite or virus in culture
# Assay type: cell-based, Yersinia pseudotuberculosis
# CONDITIONS_USED: 100 μM; strain pIB29EL; Table 2C
QUANTITY_MEASURED: Inhibition (%) of the luciferase light signal

COMPOUND	EXPERIMENTAL_VALUE
CC(=O)Oc1ccc(I)cc1C(=O)Nc1ccc(Cl)cc1 [Compound 62]	90%
CC(=O)Oc1ccccc1C(=O)Nc1ccc(Cl)cc1 [Compound 60]	89%
CC(=O)Oc1ccc(I)cc1C(=O)Nc1ccc(Br)cc1 [Compound 51]	85%
O=C(Nc1ccccc1)c1cc(I)cc(I)c1O [Compound 31]	98%
O=C(Nc1ccc(Br)cc1)c1cc(I)ccc1O [Compound 50]	70%
O=C(Nc1ccc(SC(F)(F)F)cc1)c1cccc(Cl)c1O [Compound 54]	87%
O=C(Nc1ccc([N+](=O)[O-])cc1Cl)c1cc(Cl)ccc1O [Compound 55]	94%
O=C(Nc1ccc(Cl)c(Cl)c1)c1ccccc1NS(=O)(=O)c1cccc2nsnc12 [Compound 59]	10%
O=C(Nc1ccc(Cl)cc1)c1cc(I)ccc1O [Compound 23]	78%
O=C(Nc1ccc(SC(F)(F)F)cc1)c1cc2cc(Br)ccc2c(Br)c1O [Compound 53]	68%
CC(=O)Oc1ccc(Cl)cc1C(=O)Nc1ccc([N+](=O)[O-])cc1Cl [Compound 56]	90%
O=C(Nc1cc(Cl)ccc1F)c1cc(I)cc(I)c1O [Compound 48]	88%
NC(=O)C(=O)N/N=C/c1cc(Br)cc(Br)c1O [Compound 61]	55%

====

# Tested on: luciferase light signal from pIB29EL (yopE-luxAB)
# PROTOCOL_SUMMARY: microbe, parasite or virus in culture
# Assay type: cell-based, Yersinia pseudotuberculosis
# CONDITIONS_USED: Yersinia pseudotuberculosis, read-out: Inhibition (%) of the luciferase light signal, 50 μM; strain pIB29EL; Table 2C
Rule: y for inhibition at 50 µM not less than 40%, n for anything less.

STRUCTURE	CATEGORY
CC(C)(C)c1ccc(NC(=O)c2cc(I)cc(I)c2O)cc1	n
CC(=O)Oc1c(I)cc(I)cc1C(=O)Nc1ccc(SC(F)(F)F)cc1	y
CC(=O)Oc1cc(C)ccc1C(=O)Nc1ccccc1F	y
O=C(Nc1ccccc1F)c1cc(Br)cc(Br)c1O	n
O=C(Nc1ccc(SC(F)(F)F)cc1)c1cc(I)cc(I)c1O	y
CCCCCCCc1ccc(NC(=O)c2cc(I)cc(I)c2O)cc1	y
O=C(COc1ccccc1)N/N=C/c1c(O)ccc2ccccc12	n
CC(C)(C)c1ccc(NC(=O)c2c(O)c(Cl)cc(Cl)c2Cl)cc1	y
O=C(Nc1ccc(Cl)cc1)c1ccccc1O	y
C/C(=N\NC(=O)c1ccc([N+](=O)[O-])cc1)c1cc(Br)cc(Br)c1O	y
O=C(Nc1ccc(Cl)cc1)c1cc(I)cc(I)c1O	y

====

# Test system: luciferase light signal from pIB29EL (yopE-luxAB)
# PROTOCOL_SUMMARY: microbe, parasite or virus in culture
# Assay type: cell-based, Yersinia pseudotuberculosis
# CONDITIONS_USED: 10 μM; strain pIB29EL; Table 2C
QUANTITY_MEASURED: Inhibition (%) of the luciferase light signal

MOLECULE	TESTED_ON	EXPERIMENTAL_VALUE
NC(=O)C(=O)N/N=C/c1cc(Br)cc(Br)c1O [Compound 61]	luciferase light signal from pIB29EL (yopE-luxAB)	9%
O=C(Nc1ccccc1)c1cc(I)cc(I)c1O [Compound 31]	luciferase light signal from pIB29EL (yopE-luxAB)	30%
CC(=O)Oc1ccc(Cl)cc1C(=O)Nc1ccc([N+](=O)[O-])cc1Cl [Compound 56]	luciferase light signal from pIB29EL (yopE-luxAB)	90%
CC(=O)Oc1c(Cl)cc(Cl)c(Cl)c1C(=O)Nc1ccc(SC(F)(F)F)cc1 [Compound 47]	luciferase light signal from pIB29EL (yopE-luxAB)	61%
O=C(Nc1ccc([N+](=O)[O-])cc1Cl)c1cc(Cl)ccc1O [Compound 55]	luciferase light signal from pIB29EL (yopE-luxAB)	96%
O=C(Nc1cc(Cl)ccc1F)c1cc(I)cc(I)c1O [Compound 48]	luciferase light signal from pIB29EL (yopE-luxAB)	75%
O=C(Nc1ccc(SC(F)(F)F)cc1)c1cc2cc(Br)ccc2c(Br)c1O [Compound 53]	luciferase light signal from pIB29EL (yopE-luxAB)	38%
O=C(Nc1ccc(Br)cc1)c1cc(I)ccc1O [Compound 50]	luciferase light signal from pIB29EL (yopE-luxAB)	69%
CC(=O)Oc1ccc(I)cc1C(=O)Nc1ccc(Br)cc1 [Compound 51]	luciferase light signal from pIB29EL (yopE-luxAB)	87%
CC(=O)Oc1c(I)cc(I)cc1C(=O)Nc1cc(Cl)ccc1F [Compound 49]	luciferase light signal from pIB29EL (yopE-luxAB)	34%
O=C(Nc1ccc(SC(F)(F)F)cc1)c1cccc(Cl)c1O [Compound 54]	luciferase light signal from pIB29EL (yopE-luxAB)	63%
O=C(Nc1cccc(Cl)c1)c1cc(Cl)ccc1NS(=O)(=O)c1cccc2nsnc12 [Compound 57]	luciferase light signal from pIB29EL (yopE-luxAB)	7%
O=C(Nc1ccc(Cl)c(Cl)c1)c1ccccc1NS(=O)(=O)c1cccc2nsnc12 [Compound 59]	luciferase light signal from pIB29EL (yopE-luxAB)	0%
O=C(Nc1ccc(Cl)cc1)c1ccccc1NS(=O)(=O)c1cccc2nsnc12 [Compound 58]	luciferase light signal from pIB29EL (yopE-luxAB)	5%
CC(=O)Oc1ccccc1C(=O)Nc1ccc(Cl)cc1 [Compound 60]	luciferase light signal from pIB29EL (yopE-luxAB)	21%
O=C(Nc1ccc(Cl)cc1)c1cc(I)ccc1O [Compound 23]	luciferase light signal from pIB29EL (yopE-luxAB)	75%
CC(=O)Oc1ccc(I)cc1C(=O)Nc1ccc(Cl)cc1 [Compound 62]	luciferase light signal from pIB29EL (yopE-luxAB)	92%

Measured values drawn from patent US7351861B2 for this set.
